study-system: 5-HT1F receptor (Homo sapiens, UniProt P30939)
Sequence (P30939 whole entry): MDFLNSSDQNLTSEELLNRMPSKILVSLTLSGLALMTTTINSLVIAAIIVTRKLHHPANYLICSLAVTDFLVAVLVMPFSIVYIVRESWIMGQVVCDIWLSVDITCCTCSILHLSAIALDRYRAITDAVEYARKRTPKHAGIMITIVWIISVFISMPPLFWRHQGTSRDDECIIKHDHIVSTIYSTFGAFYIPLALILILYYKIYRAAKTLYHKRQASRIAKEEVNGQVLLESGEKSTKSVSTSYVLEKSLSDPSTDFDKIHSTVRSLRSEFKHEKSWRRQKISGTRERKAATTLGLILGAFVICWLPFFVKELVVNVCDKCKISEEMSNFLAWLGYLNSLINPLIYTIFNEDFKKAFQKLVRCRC
protocol-description: biochemical
test-settings: Table I; displacement of 4.5-5.5 nM [3H]5-HT, 37° C., 30 minutes; read-out: 5-HT1F BINDING Ki
assay-endpoint: pKi
API: returns pKi as number; meaning -log10 of concentration in mol/L.

Before answering, review these 3 worked examples.
INSERT INTO measurements (compound, assay_endpoint, reported_measurement) VALUES
  ('Fc1ccccc1-n1cc(CCN2CCC(c3c[nH]c4ccc(Cl)cc34)CC2)cn1 [Example 29]', 'pKi', 7.98),
  ('COc1ccc2[nH]cc(C3CCN(CCc4cnn(C(C)C)c4)CC3)c2c1 [Example 10]', 'pKi', 8.21),
  ('Fc1ccc2[nH]cc(C3CCN(CCc4cc[nH]c4)CC3)c2c1 [Example 44]', 'pKi', 7.27);

Task: Please report the recorded pKi for Clc1cccc(-n2cc(CCN3CCC(c4c[nH]c5ccc(Cl)cc45)CC3)cn2)c1 [Example 33] .
Output: 7.07

Task: Given the entry CCCn1cc(CCN2CCC(c3c[nH]c4ccc(O)cc34)CC2)cn1 [Example 53] , report its measured pKi.
Output: 8.96
